# TARGET: LC3A (purified, for ITC)
# TEST SUMMARY: ITC
# DETAILS: both partners purified
READOUT NAME: Kd

# input Need Kd of DGTLIIDLPDSY (also called TP53INP2 peptide; source: synthetic peptide (Cosmo Bio), purified by SEC) [LIR(TP[T]) peptide] , thanks.
# output > 132 µM
